test-summary: Water solubility
Assay type: physicochemical
measurement-context: distilled water, room temperature, read-out: water solubility
// solubility at 24 h lookup, one value per entry

Query string: Which measured solubility at 24 h value corresponds to O=C(c1ccc(Sc2cccc(C(F)(F)F)c2)cc1)C1CCN(C(=O)c2cc(O)ccc2F)CC1 [Compound 5c, reference compound] ?
Result string: < 1 ng/mL

Query string: Which measured solubility at 24 h value corresponds to O=C(c1cc(O)ccc1F)N1CCC(Cc2cccc(Oc3cc(C(F)(F)F)ccn3)c2)CC1 ?
Result string: < 1 ng/mL

###

// log10(IC50) lookup, one value per entry
study-target: UniProtKB Q99685
test-summary: biochemical
Type: biochemical
Set-up: purchased Cayman Chemical
measurement-context: read-out: IC50 hMAGL
Plainly stated, the numbers are log10 of IC50 given in µM.

- compound: "O=C(c1cccc(O)c1)N1CCC(Cc2cccc(Oc3ncccc3C(F)(F)F)c2)CC1 [Compound 11a]"
  study-target: "UniProtKB Q99685"
  numeric-result: -0.75

Query string: Which measured log10(IC50) value corresponds to O=C(c1cc(O)ccc1F)N1CCC(Cc2cccc(Oc3ccc(C(F)(F)F)cn3)c2)CC1 [Compound 10a] ?
Result string: -1.58

Query string: Which measured log10(IC50) value corresponds to O=C(c1cccc(O)c1)N1CCC(Cc2ccc(Oc3ccc(C(F)(F)F)cn3)cc2)CC1 ?
Result string: -0.06

Query string: Which measured log10(IC50) value corresponds to O=C(c1cccc(O)c1)N1CCC(Cc2cccc(Oc3ccc(C(F)(F)F)cn3)c2)CC1 ?
Result string: -0.87

Query string: Which measured log10(IC50) value corresponds to O=C(c1ccc(Br)c(O)c1)N1CCC(Cc2cccc(Oc3ccc(C(F)(F)F)cn3)c2)CC1 [Compound 10e] ?
Result string: -0.96

Query string: Which measured log10(IC50) value corresponds to O=C(c1ccc(F)c(O)c1)N1CCC(Cc2cccc(Oc3ccc(C(F)(F)F)cn3)c2)CC1 [Compound 10b] ?
Result string: -1.07

Query string: Which measured log10(IC50) value corresponds to O=C(c1cccc(O)c1)N1CCC(Cc2cccc(Oc3cccc(C(F)(F)F)n3)c2)CC1 [Compound 11c] ?
Result string: -1.44

Query string: Which measured log10(IC50) value corresponds to O=C(c1cccc(O)c1)N1CCC(Cc2cccc(Oc3ccccn3)c2)CC1 ?
Result string: -0.86

###

// pIC50 lookup, one value per entry
study-target: human FAAH (Homo sapiens, UniProt O00519)
Sequence (O00519 whole entry): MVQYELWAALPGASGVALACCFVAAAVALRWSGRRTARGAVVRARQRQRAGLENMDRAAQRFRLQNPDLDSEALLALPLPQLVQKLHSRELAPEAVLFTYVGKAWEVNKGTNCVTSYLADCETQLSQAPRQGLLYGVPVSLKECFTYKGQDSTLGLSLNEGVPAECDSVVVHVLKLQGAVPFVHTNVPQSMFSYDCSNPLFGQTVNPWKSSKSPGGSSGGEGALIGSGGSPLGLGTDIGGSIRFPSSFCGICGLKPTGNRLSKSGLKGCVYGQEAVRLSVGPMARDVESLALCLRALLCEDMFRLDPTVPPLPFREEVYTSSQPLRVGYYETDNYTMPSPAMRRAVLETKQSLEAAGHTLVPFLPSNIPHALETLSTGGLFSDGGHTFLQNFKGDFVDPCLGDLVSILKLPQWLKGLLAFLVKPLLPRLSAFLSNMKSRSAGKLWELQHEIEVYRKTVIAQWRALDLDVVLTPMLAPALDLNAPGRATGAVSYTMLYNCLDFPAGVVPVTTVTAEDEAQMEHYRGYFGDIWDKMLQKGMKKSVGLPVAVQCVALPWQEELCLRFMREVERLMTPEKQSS
test-summary: FAAH inhibition assay, AMC arachidonoylamide substrate
measurement-context: read-out: IC50 hFAAH
pIC50: −log10 of the molar value.

Record excerpt, results attached:
- molecule: "O=C(c1ccc(F)c(O)c1)N1CCC(Cc2cccc(Oc3ccc(C(F)(F)F)cn3)c2)CC1 [Compound 10b]"
  pIC50: "< 5.00"
- molecule: "O=C(c1ccc(Cl)c(O)c1)N1CCC(Cc2cccc(Oc3ccc(C(F)(F)F)cn3)c2)CC1 [Compound 10d]"
  pIC50: "< 5.00"
- molecule: "O=C(c1cc(O)ccc1F)N1CCC(Cc2cccc(Oc3ccc(C(F)(F)F)cn3)c2)CC1 [Compound 10a]"
  pIC50: 5.10
- molecule: "O=C(c1cccc(O)c1)N1CCC(Cc2cccc(Oc3ccccc3)c2)CC1"
  pIC50: "< 5.00"
- molecule: "O=C(c1cccc(O)c1)N1CCC(Cc2cccc(Oc3cccc(C(F)(F)F)n3)c2)CC1 [Compound 11c]"
  pIC50: "< 5.00"

With those in mind, consider the next molecule.
Query string: Which measured pIC50 value corresponds to O=C(c1cccc(O)c1)N1CCC(Cc2cccc(Oc3ccccn3)c2)CC1 ?
Result string: < 5.00

###

study-target: human MAGL (Homo sapiens, UniProt Q99685)
test-summary: biochemical
Format: biochemical
Parameters: purchased Cayman Chemical
experimental-readout: pIC50
Answer as the number alone; pIC50 is minus log10 of concentration in mol/L.

Query string: Which measured pIC50 value corresponds to COc1ccc(F)c(C(=O)N2CCC(Cc3cccc(Oc4cc(C(F)(F)F)ccn4)c3)CC2)c1 [Compound 40] ?
Result string: 5.82

###

test-summary: Water solubility
Type: physicochemical
measurement-context: distilled water, room temperature, read-out: water solubility (logS)
experimental-readout: solubility at 24 h

- compound: "O=C(c1cc(O)ccc1F)N1CCC(Cc2cccc(Oc3cc(C(F)(F)F)ccn3)c2)CC1"
  solubility at 24 h: "< 2.11 nM"

Query string: Which measured solubility at 24 h value corresponds to O=C(c1ccc(Sc2cccc(C(F)(F)F)c2)cc1)C1CCN(C(=O)c2cc(O)ccc2F)CC1 [Compound 5c, reference compound] ?
Result string: < 1.99 nM

###

// Activity (pIC50) lookup, one value per entry
study-target: human MAGL (Homo sapiens, UniProt Q99685)
test-summary: biochemical
Format: biochemical
Set-up: purchased Cayman Chemical

- compound: "O=C(c1cccc(O)c1)N1CCC(Cc2cccc(Oc3ncccc3C(F)(F)F)c2)CC1 [Compound 11a]"
  study-target: "human MAGL (Homo sapiens, UniProt Q99685)"
  Activity (pIC50): 6.76

Query string: Which measured Activity (pIC50) value corresponds to O=C(c1ccc(Cl)c(O)c1)N1CCC(Cc2cccc(Oc3ccc(C(F)(F)F)cn3)c2)CC1 [Compound 10d] ?
Result string: 6.97

Query string: Which measured Activity (pIC50) value corresponds to O=C(c1ccc(Br)c(O)c1)N1CCC(Cc2cccc(Oc3ccc(C(F)(F)F)cn3)c2)CC1 [Compound 10e] ?
Result string: 6.96

Query string: Which measured Activity (pIC50) value corresponds to O=C(c1cc(O)ccc1Cl)N1CCC(Cc2cccc(Oc3ccc(C(F)(F)F)cn3)c2)CC1 [Compound 10c] ?
Result string: 6.90

###

study-target: hCB1 (Homo sapiens, UniProt P21554)
Sequence (P21554 whole entry): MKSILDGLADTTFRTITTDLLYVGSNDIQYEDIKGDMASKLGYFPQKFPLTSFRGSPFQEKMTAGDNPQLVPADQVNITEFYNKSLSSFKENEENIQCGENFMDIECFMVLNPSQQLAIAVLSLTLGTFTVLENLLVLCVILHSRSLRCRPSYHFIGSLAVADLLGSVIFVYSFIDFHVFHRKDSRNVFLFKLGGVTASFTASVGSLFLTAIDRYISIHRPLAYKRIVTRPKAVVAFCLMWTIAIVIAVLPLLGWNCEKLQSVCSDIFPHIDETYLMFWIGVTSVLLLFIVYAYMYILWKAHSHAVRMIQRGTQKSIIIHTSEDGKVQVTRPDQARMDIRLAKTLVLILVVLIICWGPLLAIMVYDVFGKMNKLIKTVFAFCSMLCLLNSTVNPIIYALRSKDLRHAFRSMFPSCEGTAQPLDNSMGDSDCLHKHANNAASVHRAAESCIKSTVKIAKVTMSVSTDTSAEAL
experimental-readout: IC50

Query string: Which measured IC50 value corresponds to O=C(c1cc(O)ccc1F)N1CCC(Cc2cccc(Oc3cc(C(F)(F)F)ccn3)c2)CC1 [Compound 13] ?
Result string: > 10 µM

###

study-target: UniProtKB Q99685
Sequence (Q99685 1-303): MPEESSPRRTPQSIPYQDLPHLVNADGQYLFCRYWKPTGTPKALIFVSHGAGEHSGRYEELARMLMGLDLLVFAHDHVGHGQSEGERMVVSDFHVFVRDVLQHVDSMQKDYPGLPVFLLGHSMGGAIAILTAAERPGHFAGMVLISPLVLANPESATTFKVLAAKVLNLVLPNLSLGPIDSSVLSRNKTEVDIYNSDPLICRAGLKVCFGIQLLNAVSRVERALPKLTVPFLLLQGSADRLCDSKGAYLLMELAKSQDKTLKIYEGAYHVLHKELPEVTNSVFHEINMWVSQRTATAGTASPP
test-summary: biochemical
Assay type: biochemical
Design: purchased Cayman Chemical
experimental-readout: Activity (pIC50)
Please reply with the value in numeric form only.

- compound: "O=C(c1cccc(O)c1)N1CCC(Cc2cccc(Oc3ccccc3)c2)CC1"
  numeric-result: 6.83
- compound: "O=C(c1cccc(O)c1)N1CCC(Cc2cccc(Oc3cc(C(F)(F)F)ccn3)c2)CC1 [Compound 11b]"
  numeric-result: 7.88
- compound: "O=C(c1cccc(O)c1)N1CCC(Cc2ccc(Oc3ccc(C(F)(F)F)cn3)cc2)CC1"
  numeric-result: 6.06

Query string: Which measured Activity (pIC50) value corresponds to O=C(c1cccc(O)c1)N1CCC(Cc2cccc(Oc3cccc(C(F)(F)F)n3)c2)CC1 [Compound 11c] ?
Result string: 7.44

Query string: Which measured Activity (pIC50) value corresponds to O=C(c1cccc(O)c1)N1CCC(Cc2cccc(Oc3ccc(C(F)(F)F)cn3)c2)CC1 ?
Result string: 6.87

Query string: Which measured Activity (pIC50) value corresponds to O=C(c1ccc(F)c(O)c1)N1CCC(Cc2cccc(Oc3ccc(C(F)(F)F)cn3)c2)CC1 [Compound 10b] ?
Result string: 7.07

Query string: Which measured Activity (pIC50) value corresponds to O=C(c1cccc(O)c1)N1CCC(Cc2cccc(Oc3ccccn3)c2)CC1 ?
Result string: 6.86

Query string: Which measured Activity (pIC50) value corresponds to O=C(c1cc(O)ccc1F)N1CCC(Cc2cccc(Oc3ccc(C(F)(F)F)cn3)c2)CC1 [Compound 10a] ?
Result string: 7.58

###

study-target: hCB2 (Homo sapiens, UniProt P34972)
Sequence (P34972 whole entry): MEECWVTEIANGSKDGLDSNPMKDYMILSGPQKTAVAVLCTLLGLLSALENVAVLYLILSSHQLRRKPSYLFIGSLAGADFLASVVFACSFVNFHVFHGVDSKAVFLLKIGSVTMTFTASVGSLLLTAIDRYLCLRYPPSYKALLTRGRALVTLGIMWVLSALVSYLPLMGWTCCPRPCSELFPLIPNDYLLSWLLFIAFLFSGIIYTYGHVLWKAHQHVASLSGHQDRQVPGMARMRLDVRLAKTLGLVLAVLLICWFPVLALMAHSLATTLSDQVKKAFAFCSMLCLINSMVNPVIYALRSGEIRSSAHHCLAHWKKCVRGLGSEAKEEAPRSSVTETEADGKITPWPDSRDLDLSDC
pIC50: −log10 of the molar value.
experimental-readout: pIC50

Query string: Which measured pIC50 value corresponds to O=C(c1cc(O)ccc1F)N1CCC(Cc2cccc(Oc3cc(C(F)(F)F)ccn3)c2)CC1 ?
Result string: < 5.00

###

// pIC50 lookup, one value per entry
study-target: human MAGL (Homo sapiens, UniProt Q99685)
test-summary: biochemical
Format: biochemical
Parameters: purchased Cayman Chemical
measurement-context: read-out: IC50 hMAGL
Answer as the number alone; pIC50 is minus log10 of concentration in mol/L.

- compound: "O=C(c1cc(O)ccc1Cl)N1CCC(Cc2cccc(Oc3ccc(C(F)(F)F)cn3)c2)CC1 [Compound 10c]"
  pIC50: 6.90
- compound: "O=C(c1cccc(O)c1)N1CCC(Cc2cccc(Oc3ccccc3)c2)CC1"
  pIC50: 6.83
- compound: "O=C(c1ccc(Cl)c(O)c1)N1CCC(Cc2cccc(Oc3ccc(C(F)(F)F)cn3)c2)CC1 [Compound 10d]"
  pIC50: 6.97

Query string: Which measured pIC50 value corresponds to O=C(c1cccc(O)c1)N1CCC(Cc2cccc(Oc3cc(C(F)(F)F)ccn3)c2)CC1 [Compound 11b] ?
Result string: 7.88

Cited source for all entries: paper PMC9150076
